# System under test: T1, FV-short-QQ (FV-short with Arg709 and Arg1545 replaced with Gln) (human)
# T1 construct: coagulation factor V, FV-short with both thrombin cleavage sites changed to Gln, not cleaved by thrombin; source: BHK cells, purified
# Assay remarks: inhibition of prothrombinase (prothrombin activation assay); 0.1 nM cofactor species, 50 μM PCPS, 1.4 μM prothrombin, 3 μM DAPA, TFPIα-BR 0–7 μM, started with 2 nM FXa, assay buffer, 25 °C; Ki from the equation for competitive inhibition
# Condition details: both partners purified
pKi: −log10 of the molar value.

Binder	pKi
KKGFIQRISKGGLIKTKRKRKKQRVKIAYEEIFVKNM (domain or fragment, limits not printed (refs 17, 18); taken as the whole C-terminal tail after Kunitz 3 (mature 240-276); expressed in E. coli, unglycosylated) [TFPIα-BR, fragment containing the BR sequence of TFPIα]	7.63
